Task for the reader: assign each of the following molecules its reported IC50.
Test system: HL-60
protocol.details: Concentration which reduces by half the percentage of differentiated HL-60 cells induced by 1 x 10e-9 M Am80.
Assay type: functional, cell-based
applied.conditions: Homo sapiens
Kindly provide the numeric value in nM only, without the unit symbol.

Could you tell me which IC50 is on file for `CN1c2cc3c(cc2N=C(c2ccc(C(=O)O)cc2)c2ccc4ccccc4c21)C(C)(C)CCC3(C)C` ? 36

Could you tell me which IC50 is on file for `CCCN1c2cc3c(cc2N=C(c2ccc(C(=O)O)cc2)c2ccccc21)C(C)(C)CCC3(C)C` ? 130

Could you tell me which IC50 is on file for `CN1c2cc3c(cc2N=C(c2ccc(C(=O)O)cc2)c2c1c1ccccc1c1ccccc21)C(C)(C)CCC3(C)C` ? 350

Could you tell me which IC50 is on file for `CN1c2cc3c(cc2N=C(c2ccc(C(=O)O)cc2)c2ccc4cc5ccccc5cc4c21)C(C)(C)CCC3(C)C` ? 320

Could you tell me which IC50 is on file for `CN1c2cc3c(cc2N=C(c2ccc(C(=O)O)cc2)c2cc4c(cc21)C(C)(C)CCC4(C)C)C(C)(C)CCC3(C)C` ? 830

Could you tell me which IC50 is on file for `CCCCCCCN1c2cc3c(cc2N=C(c2ccc(C(=O)O)cc2)c2ccccc21)C(C)(C)CCC3(C)C` ? 210

Could you tell me which IC50 is on file for `CN1c2cc3c(cc2N=C(c2ccc(C(=O)O)cc2)c2c1ccc1ccccc21)C(C)(C)CCC3(C)C` ? 120

Could you tell me which IC50 is on file for `CN1c2cc3c(cc2N=C(c2ccc(C(=O)O)cc2)c2ccccc21)C(C)(C)CCC3(C)C` ? 150

All values here come from ChEMBL document CHEMBL1130267.
